target: cIAP1 BIR3 Protein (Homo sapiens (Human)); assay: Fluorescence polarization-based competitive binding assay, cIAP-1 BIR3; details: 10 nM cIAP-1 BIR3 protein, 2 nM SM5F tracer
Sequence (Q13490 253-363): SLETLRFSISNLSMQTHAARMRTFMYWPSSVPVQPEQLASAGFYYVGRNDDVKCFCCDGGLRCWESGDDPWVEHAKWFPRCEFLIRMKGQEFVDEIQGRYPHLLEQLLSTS
Below, each entry is listed alongside its reported IC50.

smilesNotation	IC50
CN[C@@H](C)C(=O)N[C@H]1CN(C(=O)CCCCC(=O)N2CC[C@H]3CC[C@@H](c4nc5cccc(-c6ccccc6)c5[nH]4)N3C(=O)[C@@H](NC(=O)[C@H](C)NC)C2)CC[C@H]2CC[C@@H](c3nc4c(-c5ccccc5)cccc4[nH]3)N2C1=O	< 0.01 µM
CN[C@@H](C)C(=O)N[C@H]1CN(C(=O)CCCCCCC(=O)N2CC[C@H]3CC[C@@H](c4nc5cccc(-c6ccccc6)c5[nH]4)N3C(=O)[C@@H](NC(=O)[C@H](C)NC)C2)CC[C@H]2CC[C@@H](c3nc4c(-c5ccccc5)cccc4[nH]3)N2C1=O	< 0.01 µM
CN[C@@H](C)C(=O)N[C@H]1CN(C(=O)CCCCCCCCCCC(=O)N2CC[C@H]3CC[C@@H](c4nc5cccc(-c6ccccc6)c5[nH]4)N3C(=O)[C@@H](NC(=O)[C@H](C)NC)C2)CC[C@H]2CC[C@@H](c3nc4c(-c5ccccc5)cccc4[nH]3)N2C1=O	< 0.05 µM
CN[C@@H](C)C(=O)N[C@H]1CN(C(=O)CCCCOCCCCC(=O)N2CC[C@H]3CC[C@@H](c4nc5cccc(-c6ccccc6)c5[nH]4)N3C(=O)[C@@H](NC(=O)[C@H](C)NC)C2)CC[C@H]2CC[C@@H](c3nc4c(-c5ccccc5)cccc4[nH]3)N2C1=O	< 0.01 µM
CN[C@@H](C)C(=O)N[C@H]1CN(C(=O)CCCCCCCCC(=O)N2CC[C@H]3CC[C@@H](c4nc5cccc(-c6ccccc6)c5[nH]4)N3C(=O)[C@@H](NC(=O)[C@H](C)NC)C2)CC[C@H]2CC[C@@H](c3nc4c(-c5ccccc5)cccc4[nH]3)N2C1=O	< 0.01 µM

* * *

test system: MDA-MB-231 human breast cancer cell line; experiment: Cancer cell growth inhibition, WST-8; type: cell-based; conditions: MDA-MB-231, 96 h, 4 days
Recorded IC50 values for a group of compounds are listed next.

compound	IC50
CN[C@@H](C)C(=O)N[C@H]1CN(C(=O)CCCCOCCCCC(=O)N2CC[C@H]3CC[C@@H](c4nc5cccc(-c6ccccc6)c5[nH]4)N3C(=O)[C@@H](NC(=O)[C@H](C)NC)C2)CC[C@H]2CC[C@@H](c3nc4c(-c5ccccc5)cccc4[nH]3)N2C1=O [SM-1259]	< 10 nM
CN[C@@H](C)C(=O)N[C@H]1CN(C(=O)CCCCCCC(=O)N2CC[C@H]3CC[C@@H](c4nc5cccc(-c6ccccc6)c5[nH]4)N3C(=O)[C@@H](NC(=O)[C@H](C)NC)C2)CC[C@H]2CC[C@@H](c3nc4c(-c5ccccc5)cccc4[nH]3)N2C1=O [SM-1266]	< 10 nM
CN[C@@H](C)C(=O)N[C@H]1CN(C(=O)CCCCCCCCC(=O)N2CC[C@H]3CC[C@@H](c4nc5cccc(-c6ccccc6)c5[nH]4)N3C(=O)[C@@H](NC(=O)[C@H](C)NC)C2)CC[C@H]2CC[C@@H](c3nc4c(-c5ccccc5)cccc4[nH]3)N2C1=O [SM-1267]	< 10 nM
CN[C@@H](C)C(=O)N[C@H]1CN(C(=O)CCCCCCCCCCC(=O)N2CC[C@H]3CC[C@@H](c4nc5cccc(-c6ccccc6)c5[nH]4)N3C(=O)[C@@H](NC(=O)[C@H](C)NC)C2)CC[C@H]2CC[C@@H](c3nc4c(-c5ccccc5)cccc4[nH]3)N2C1=O [SM-1258]	< 10 nM
CN[C@@H](C)C(=O)N[C@H]1CN(C(=O)CCCCC(=O)N2CC[C@H]3CC[C@@H](c4nc5cccc(-c6ccccc6)c5[nH]4)N3C(=O)[C@@H](NC(=O)[C@H](C)NC)C2)CC[C@H]2CC[C@@H](c3nc4c(-c5ccccc5)cccc4[nH]3)N2C1=O [SM-1265]	< 50 nM

* * *

biological target: XIAP Linker-BIR2-BIR3 Protein (Homo sapiens (Human), UniProt P98170); experiment: Fluorescence polarization-based binding assay, XIAP Linker-BIR2-BIR3; conditions: 3 nM XIAP protein (residues 120-356), 1 nM Smac2-F
Sequence (P98170 120-356): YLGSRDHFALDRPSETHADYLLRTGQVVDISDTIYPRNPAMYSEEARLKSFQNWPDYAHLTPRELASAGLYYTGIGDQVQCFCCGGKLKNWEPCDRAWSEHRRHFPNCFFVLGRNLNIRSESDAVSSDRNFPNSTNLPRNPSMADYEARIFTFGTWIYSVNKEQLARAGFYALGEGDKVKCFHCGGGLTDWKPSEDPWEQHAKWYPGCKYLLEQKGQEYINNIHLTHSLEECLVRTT
readoutKind: IC50

smilesNotation	reported
CN[C@@H](C)C(=O)N[C@H]1CN(C(=O)CCCCCCCCCCC(=O)N2CC[C@H]3CC[C@@H](c4nc5cccc(-c6ccccc6)c5[nH]4)N3C(=O)[C@@H](NC(=O)[C@H](C)NC)C2)CC[C@H]2CC[C@@H](c3nc4c(-c5ccccc5)cccc4[nH]3)N2C1=O	< 0.01 µM
CN[C@@H](C)C(=O)N[C@H]1CN(C(=O)CCCCCCCCC(=O)N2CC[C@H]3CC[C@@H](c4nc5cccc(-c6ccccc6)c5[nH]4)N3C(=O)[C@@H](NC(=O)[C@H](C)NC)C2)CC[C@H]2CC[C@@H](c3nc4c(-c5ccccc5)cccc4[nH]3)N2C1=O	< 0.01 µM
CN[C@@H](C)C(=O)N[C@H]1CN(C(=O)CCCCC(=O)N2CC[C@H]3CC[C@@H](c4nc5cccc(-c6ccccc6)c5[nH]4)N3C(=O)[C@@H](NC(=O)[C@H](C)NC)C2)CC[C@H]2CC[C@@H](c3nc4c(-c5ccccc5)cccc4[nH]3)N2C1=O	< 0.05 µM
CN[C@@H](C)C(=O)N[C@H]1CN(C(=O)CCCCCCC(=O)N2CC[C@H]3CC[C@@H](c4nc5cccc(-c6ccccc6)c5[nH]4)N3C(=O)[C@@H](NC(=O)[C@H](C)NC)C2)CC[C@H]2CC[C@@H](c3nc4c(-c5ccccc5)cccc4[nH]3)N2C1=O	< 0.01 µM
CN[C@@H](C)C(=O)N[C@H]1CN(C(=O)CCCCOCCCCC(=O)N2CC[C@H]3CC[C@@H](c4nc5cccc(-c6ccccc6)c5[nH]4)N3C(=O)[C@@H](NC(=O)[C@H](C)NC)C2)CC[C@H]2CC[C@@H](c3nc4c(-c5ccccc5)cccc4[nH]3)N2C1=O	< 0.01 µM

* * *

Known pIC50 of a selection of molecules
molecular target: cIAP2 BIR3 Protein (Homo sapiens (Human), UniProt Q13489); experiment: Fluorescence polarization-based competitive binding assay, cIAP-2 BIR3; conditions: 25 nM cIAP-2 BIR3 protein, 2 nM SM5F tracer
Sequence (Q13489 238-349): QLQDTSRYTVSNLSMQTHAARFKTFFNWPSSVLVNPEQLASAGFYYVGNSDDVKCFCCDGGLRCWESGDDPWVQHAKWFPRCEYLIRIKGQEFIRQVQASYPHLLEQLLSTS
pIC50: −log10 of the molar value.
readoutKind: pIC50

molecule	readoutKind	reported
CN[C@@H](C)C(=O)N[C@H]1CN(C(=O)CCCCCCC(=O)N2CC[C@H]3CC[C@@H](c4nc5cccc(-c6ccccc6)c5[nH]4)N3C(=O)[C@@H](NC(=O)[C@H](C)NC)C2)CC[C@H]2CC[C@@H](c3nc4c(-c5ccccc5)cccc4[nH]3)N2C1=O [SM-1266]	pIC50	> 7.70
CN[C@@H](C)C(=O)N[C@H]1CN(C(=O)CCCCOCCCCC(=O)N2CC[C@H]3CC[C@@H](c4nc5cccc(-c6ccccc6)c5[nH]4)N3C(=O)[C@@H](NC(=O)[C@H](C)NC)C2)CC[C@H]2CC[C@@H](c3nc4c(-c5ccccc5)cccc4[nH]3)N2C1=O [SM-1259]	pIC50	> 7.70
CN[C@@H](C)C(=O)N[C@H]1CN(C(=O)CCCCCCCCC(=O)N2CC[C@H]3CC[C@@H](c4nc5cccc(-c6ccccc6)c5[nH]4)N3C(=O)[C@@H](NC(=O)[C@H](C)NC)C2)CC[C@H]2CC[C@@H](c3nc4c(-c5ccccc5)cccc4[nH]3)N2C1=O [SM-1267]	pIC50	> 7.30
CN[C@@H](C)C(=O)N[C@H]1CN(C(=O)CCCCC(=O)N2CC[C@H]3CC[C@@H](c4nc5cccc(-c6ccccc6)c5[nH]4)N3C(=O)[C@@H](NC(=O)[C@H](C)NC)C2)CC[C@H]2CC[C@@H](c3nc4c(-c5ccccc5)cccc4[nH]3)N2C1=O [SM-1265]	pIC50	> 8.00

Cited source for all entries: patent US8815927B2
